assay: Cytotoxicity against mouse RAW264.7 cells assessed as cell viability at 1 microg/ml measured after 24 hrs by CCK-8 assay; type: toxicity, cell-based; details: at 1 µg/mL, read-out: Activity
Positions of bridges follow the written chain, without caps; N, C: chain ends. Non-standard residues stand in square brackets, D forms with d. Residues, ends and D or L forms follow the SMILES beside them. ξ: configuration not given here. *: point of attachment. X1 = COCCOCCOCCOCCOCCOCCOCCC(=O)*; NMeC = CN[C@@H](CS)C(=O)O; Orn = NCCC[C@H](N)C(=O)O; ξNMeM = CNC(CCSC)C(=O)O; ξM = CSCCC(N)C(=O)O
result-type: viability at 24 h, 1 microg/ml

Some entries whose results are on file:
compound	viability at 24 h, 1 microg/ml
CSCC[C@H](NC(C)=O)C(=O)N[C@@H](CCC(N)=O)C(=O)N[C@@H](CS)C(=O)N[C@@H](CC(N)=O)C(=O)N[C@@H](CO)C(N)=O (Ac-MQCNS-NH2)	~80%
COCCOCCOCCOCCOCCOCCOCCC(=O)N[C@@H](CCSC)C(=O)N[C@@H](CCC(N)=O)C(=O)N[C@@H](CS)C(=O)N[C@@H](CC(N)=O)C(=O)N[C@@H](CO)C(N)=O (X1-MQCNS-NH2)	~80%
CSCC[C@@H](N)C(=O)N[C@H]1CC(=O)NCCCC[C@@H](C(=O)N[C@@H](CO)C(N)=O)NC(=O)[C@H](CS)NC1=O	~80%

In: May I ask what viability at 24 h, 1 microg/ml has been recorded for CNC(CCSC)C(=O)N[C@@H](CCC(N)=O)C(=O)N[C@@H](CS)C(=O)N[C@@H](CC(N)=O)C(=O)N[C@@H](CO)C(N)=O (some centres not stated) (H-[ξNMeM]QCNS-NH2) ?
Out: ~80%

In: Continue with CSCC[C@H](N)C(=O)N[C@@H](CCC(N)=O)C(=O)N[C@@H](CS)C(=O)N[C@H](CC(N)=O)C(=O)N[C@@H](CO)C(N)=O
Out: ~80%

In: Request: CSCCC(N)C(=O)N[C@@H](CCC(N)=O)C(=O)N(C)[C@@H](CS)C(=O)N[C@@H](CC(N)=O)C(=O)N[C@@H](CO)C(N)=O (some centres not stated) (H-[ξM]Q[NMeC]NS-NH2)
Out: ~80%

In: Try the compound CSCC[C@H](N)C(=O)N[C@H]1CCCNC(=O)CC[C@@H](C(=O)N[C@@H](CO)C(N)=O)NC(=O)[C@H](CS)NC1=O (H-M[Orn]CES-NH2; lactam 2-4)
Out: 81.9%

###

experiment: Cytotoxicity against mouse RAW264.7 cells assessed as cell viability at 1 microg/ml measured after 24 hrs by CCK-8 assay; format: toxicity, cell-based; conditions: at 1 µg/mL, read-out: Activity
Non-standard residues stand in square brackets, D forms with d. Residues, ends and D or L forms follow the SMILES beside them. ξ: configuration not given here. *: point of attachment. NMeN = CN[C@@H](CC(N)=O)C(=O)O; X2 = COCCOCCOCCOCCOCCC(=O)*; Heptanoyl = CCCCCCC(=O)*; ξM = CSCCC(N)C(=O)O
result-type: viability at 24 h, 1 microg/ml

Solved cases (4 shown):
molecule	result-type	result
COCCOCCOCCOCCOCCC(=O)N[C@@H](CCSC)C(=O)N[C@@H](CCC(N)=O)C(=O)N[C@@H](CS)C(=O)N[C@@H](CC(N)=O)C(=O)N[C@@H](CO)C(N)=O (X2-MQCNS-NH2)	viability at 24 h, 1 microg/ml	~80%
CSCC[C@H](N)C(=O)N[C@H](CCC(N)=O)C(=O)N[C@@H](CS)C(=O)N[C@@H](CC(N)=O)C(=O)N[C@@H](CO)C(N)=O	viability at 24 h, 1 microg/ml	~80%
CSCCC(N)C(=O)N[C@@H](CCC(N)=O)C(=O)N[C@@H](CS)C(=O)N(C)[C@@H](CC(N)=O)C(=O)N[C@@H](CO)C(N)=O (stereo not given in full) (H-[ξM]QC[NMeN]S-NH2)	viability at 24 h, 1 microg/ml	~80%
CCCCCCC(=O)N[C@@H](CCSC)C(=O)N[C@@H](CCC(N)=O)C(=O)N[C@@H](CS)C(=O)N[C@@H](CC(N)=O)C(=O)N[C@@H](CO)C(N)=O (Heptanoyl-MQCNS-NH2)	viability at 24 h, 1 microg/ml	~80%

Please examine the following record next.
In: Which measured viability at 24 h, 1 microg/ml value corresponds to CSCC[C@H](N)C(=O)N[C@@H](CCC(N)=O)C(=O)N[C@@H](CS)C(=O)N[C@@H](CC(N)=O)C(=O)N[C@@H](CO)C(N)=O ?
Out: 82.2%

###

test: Cytotoxicity against mouse RAW264.7 cells assessed as cell viability at 1 microg/ml measured after 24 hrs by CCK-8 assay; assay type: toxicity, cell-based; conditions: at 1 µg/mL, read-out: Activity
Positions of bridges follow the written chain, without caps; N, C: chain ends. Non-standard residues stand in square brackets, D forms with d. Residues, ends and D or L forms follow the SMILES beside them. ξ: configuration not given here. NMeQ = CN[C@@H](CCC(N)=O)C(=O)O; Orn = NCCC[C@H](N)C(=O)O; ξM = CSCCC(N)C(=O)O
Each item that follows carries a reported viability at 24 h, 1 microg/ml.

molecule	viability at 24 h, 1 microg/ml
COCCOCCOCCSC[C@@H](NC(=O)[C@@H](CCC(N)=O)NC(=O)[C@H](N)CCSC)C(=O)N[C@H](CC(N)=O)C(=O)N[C@H](CO)C(N)=O	~80%
CSCC[C@H](N)C(=O)N[C@H]1CCCCNC(=O)CC[C@@H](C(=O)N[C@@H](CO)C(N)=O)NC(=O)[C@H](CS)NC1=O (H-MKCES-NH2; lactam 2-4)	~80%
CSCCC(N)C(=O)N(C)[C@@H](CCC(N)=O)C(=O)N[C@@H](CS)C(=O)N[C@@H](CC(N)=O)C(=O)N[C@@H](CO)C(N)=O (stereo not given in full) (H-[ξM][NMeQ]CNS-NH2)	82.9%
CSCC[C@H](N)C(=O)N[C@H]1CCC(=O)NCCC[C@@H](C(=O)N[C@@H](CO)C(N)=O)NC(=O)[C@H](CS)NC1=O (H-MEC[Orn]S-NH2; lactam 2-4)	~80%

Consider now this further molecule.
In: Report viability at 24 h, 1 microg/ml for COCCOCCOCCOCCOCCSC[C@@H](NC(=O)[C@@H](CCC(N)=O)NC(=O)[C@H](N)CCSC)C(=O)N[C@H](CC(N)=O)C(=O)N[C@H](CO)C(N)=O please.
Out: ~80%

###

test: Cytotoxicity against mouse RAW264.7 cells assessed as cell viability at 1 microg/ml measured after 24 hrs by CCK-8 assay; assay type: toxicity, cell-based; conditions: at 1 µg/mL, read-out: Activity
Positions of bridges follow the written chain, without caps; N, C: chain ends. Non-standard residues stand in square brackets, D forms with d. Residues, ends and D or L forms follow the SMILES beside them. ξ: configuration not given here. *: point of attachment. NMeS = CN[C@@H](CO)C(=O)O; Orn = NCCC[C@H](N)C(=O)O; Pentanoyl = CCCCC(=O)*; ξM = CSCCC(N)C(=O)O
result-type: viability at 24 h, 1 microg/ml

molecule	result-type	result
CSCC[C@H](N)C(=O)N[C@@H](CCC(N)=O)C(=O)N[C@@H](CS)C(=O)N[C@@H](CC(N)=O)C(=O)N[C@H](CO)C(N)=O	viability at 24 h, 1 microg/ml	~80%
CCCCC(=O)N[C@@H](CCSC)C(=O)N[C@@H](CCC(N)=O)C(=O)N[C@@H](CS)C(=O)N[C@@H](CC(N)=O)C(=O)N[C@@H](CO)C(N)=O (Pentanoyl-MQCNS-NH2)	viability at 24 h, 1 microg/ml	~80%
CSCC[C@H](N)C(=O)N[C@H]1CCCCNC(=O)C[C@@H](C(=O)N[C@@H](CO)C(N)=O)NC(=O)[C@H](CS)NC1=O (H-MKCDS-NH2; lactam 2-4)	viability at 24 h, 1 microg/ml	~80%

In: Consider the molecule shown here: CSCC[C@H](N)C(=O)N[C@H]1CCCNC(=O)C[C@@H](C(=O)N[C@@H](CO)C(N)=O)NC(=O)[C@H](CS)NC1=O (H-M[Orn]CDS-NH2; lactam 2-4) What is its recorded viability at 24 h, 1 microg/ml?
Out: ~80%

In: Next entry: CSCCC(N)C(=O)N[C@@H](CCC(N)=O)C(=O)N[C@@H](CS)C(=O)N[C@@H](CC(N)=O)C(=O)N(C)[C@@H](CO)C(N)=O (stereo not given in full) (H-[ξM]QCN[NMeS]-NH2)
Out: ~80%
